Where these numbers come from: patent US20220106304A1

Reported half-life at 1 µM values are given for each entry in this list.
- measurement-protocol: Liver microsome metabolic stability, MLM
- Format: in vitro ADME
- applied-conditions: mouse, liver microsomes, pH 7.4; MLM (single value or second of two), 1 μM compound, 0.25 mg/mL protein; read-out: T1/2 in (mins HLM/MLM)
measure-name: half-life at 1 µM (min)

{"compound": "O=C1CCN(c2nc(-c3cc4ccc(Cl)cc4o3)cs2)C1", "measure-name": "half-life at 1 µM", "measured-result": 13}
{"compound": "FC(F)(F)c1ccc2cc(-c3csc(-c4ccc[nH]4)n3)oc2c1", "measure-name": "half-life at 1 µM", "measured-result": 31}
{"compound": "FC(F)(F)c1ccc2cc(-c3csc(NC4CC4)n3)oc2c1", "measure-name": "half-life at 1 µM", "measured-result": 11}
{"compound": "Clc1ccc2cc(-c3coc(-c4ccco4)n3)oc2c1", "measure-name": "half-life at 1 µM", "measured-result": 8}
{"compound": "Fc1ccc(-c2nc(-c3nc4ccc(C(F)(F)F)cc4o3)cs2)o1", "measure-name": "half-life at 1 µM", "measured-result": 34}
{"compound": "FC(F)(F)c1ccc2cc(-c3csc(N4CCCC4)n3)oc2c1", "measure-name": "half-life at 1 µM", "measured-result": 18}
{"compound": "Clc1cc2cc(-c3csc(-c4ccc[nH]4)n3)oc2cc1Cl", "measure-name": "half-life at 1 µM", "measured-result": 26}
{"compound": "c1ccc2c(c1)CCC2c1ccc(-c2nc3ccccc3s2)o1 (stereo not shown)", "measure-name": "half-life at 1 µM", "measured-result": 52}
{"compound": "Clc1ccc2cc(-c3cccc(-c4ccc[nH]4)n3)oc2c1", "measure-name": "half-life at 1 µM", "measured-result": 30}
{"compound": "Cc1c(-c2ccc(-c3ccccc3)o2)oc2ccccc12", "measure-name": "half-life at 1 µM", "measured-result": 11}
